- Experiment Description: NCI Yeast Anticancer Drug Screen. Data for the mec2-1 strain (AID 157)
- Measurement Setup: S. cerevisiae mec2-1 strain, at 50.0 µM (retest, dose inferred, filed as 5.0), hits give high values
- Method: Growth inhibition of yeast strains with defined genetic alterations is measured as a screen for potential anti-cancer activity. Selected strains with alterations in DNA damage repair or cell cycle control were exposed to compounds and growth inhibition was measured relative to vehicle treated controls. The strain used in this assay is mec2-1
About 79,000 compounds went through this panel and 15% of them were active in at least one assay; those are over-represented in the sample as a whole.
Answer each item with its documented growth inhibition.
Give bare numbers, in %.

Some entries whose results are on file:
INSERT INTO results (molecule, measured_metric, scale_unit, data_value) VALUES
  ('Cc1ccc(S(=O)(=O)NNc2nc(N3CCOCC3)nc(N3CCOCC3)n2)cc1', 'growth inhibition', '%', 2),
  ('O=C(O)CCC(=O)NCCNC(=O)CC(=O)O', 'growth inhibition', '%', -51),
  ('CCCCCCCCCSC(=S)N(C)NC(=O)c1ccccn1', 'growth inhibition', '%', 81);

// for each molecule below, give its growth inhibition
1. Clc1cc[c]([Sn]([Cl])([O][Sn]([Cl])([c]2ccc(Cl)cc2)[c]2ccc(Cl)cc2)[c]2ccc(Cl)cc2)cc1
2. CC(=O)OC1C(O)C(C)OC(OC(=O)C2CCC3C(C2)OC2(CC(OC(=O)/C=C/c4ccccc4)C(C)CO2)C32CO2)C1OC1OC(C)C(O)C(O)C1O (centres undefined)
3. Cc1c2cc[n+](C)cc2c(C)c2c1[nH]c1ccc(Cl)cc12
4. CCOC(=O)c1sc(N/N=C2\NC(=O)/C(=C/c3ccc([N+](=O)[O-])cc3)S2)nc1C
5. C(=C\c1ccc(-[n+]2nc(-c3ccccc3)nn2-c2ccccc2)cc1)/c1ccccc1

1: 98; 2: 98; 3: 99; 4: 90; 5: 100

Entry under test: "COc1ccc2c(c1)sc(/C=C/c1ccc(O)c3ncccc13)[n+]2C" . Its growth inhibition was 92

Values compiled from PubChem BioAssay (NCI).
